System: MDA-MB-468 breast
TEST PROTOCOL: NCI-60 one-dose screen, 48 h (100 = growth as untreated, 0 = no growth, -100 = all killed)
TEST SETTINGS: 10 µM unless noted
This is part of a sample that, as a whole, favours compounds with a hit. Of some 83,000 tested, about 20% had one in any assay.
MEASURED PARAMETER: growth (%)
One number for each entry, in %.

# MOLECULE, STUDY SYSTEM, UNIT STRING, growth
data = [
    ("O=C(NNc1nc2cc(F)ccc2n2c(CN3CCCC3)ccc12)c1cnccn1", "MDA-MB-468 breast", "%", -14.4),
    ("[2H]C([2H])([2H])Oc1ccc(F)cc1/C=C/C(=O)/C=C(O)/C=C/c1cc(F)ccc1OC([2H])([2H])[2H]", "MDA-MB-468 breast", "%", 91.6),
    ("COc1cc(C(=O)O)c(O)c(C(C)(C)C)c1", "MDA-MB-468 breast", "%", 100),
    ("CCn1c(SCC(=O)Nc2ccc(-c3nc4ccccc4[nH]3)cc2)nc2ccccc2c1=O", "MDA-MB-468 breast", "%", -81),
    ("CC1CN(/N=C/c2ccc([N+](=O)[O-])o2)C(=N)O1 (centres undefined)", "MDA-MB-468 breast", "%", 89.6),
    ("COc1ccc(/C=C/C(=O)c2cccc(OCCCCOc3cccc(C(=O)/C=C/c4ccc(OC)c(OC)c4)c3)c2)cc1OC", "MDA-MB-468 breast", "%", 23.1),
]

Look up growth for the entries below, preserving their order.
1. COC(=O)C1CN(S(=O)(=O)/N=C2\NC(=O)NC2=C(Cl)Cl)C1
2. C=C1CCC2C3(C)COC(c4ccc(NC(C)=O)cc4)OC3CCC2(C)C1C/C=C1/C(=O)OCC1O (centres undefined)
3. CCSCC1CC(O)(c2ccccc2)CC(c2ccc(F)cc2)O1 (centres undefined)

### Response
1. 72.5
2. 19.3
3. 8.89
